Exercise: for every item that follows, state its recorded Degradation rate (%) of ERα in MCF-7 cells.
- TARGET OR TEST SYSTEM: ERα (Homo sapiens)
- MEASUREMENT PROTOCOL: Degradation of ERα in MCF-7 cells (immunoblotting, 4 h)
- Format: cell-based
- ASSAY SETUP: 1nM compound
Numbers only, in %.

| COMPOUND | QUANTITATIVE READOUT |
| --- | --- |
| O=C1CCC(N2Cc3c(ccc4c3OCC43CCN(CC4CN(C(=O)C5CCN(c6ccc([C@@H]7c8ccc(O)cc8CC[C@@H]7c7ccccc7)cc6)CC5)C4)CC3)C2=O)C(=O)N1 (stereo partly drawn) | 61 |
| O=C1CCC(N2Cc3c(ccc4c3OCC43CCN(C(=O)C4CN(CC5CCN(c6ccc([C@@H]7c8ccc(O)cc8CC[C@@H]7c7ccccc7)cc6)CC5)C4)CC3)C2=O)C(=O)N1 (stereo partly drawn) [J9] | 63 |

Please look at the following compound next.
Data request: Give the reported Degradation rate (%) of ERα in MCF-7 cells for this compound. O=C1CCC(N2C(=O)c3cc4c(cc3C2=O)OC2(CC4)CN(CC3CC4(CCN(c5ccc([C@@H]6c7ccc(O)cc7CC[C@@H]6c6ccccc6)cc5)CC4)C3)C2)C(=O)N1 (stereo partly drawn)
Data returned: -40

* * *

Exercise: for every item that follows, state its recorded Degradation rate (%) of ERα in MCF-7 cells.
- TARGET OR TEST SYSTEM: ERα (Homo sapiens, UniProt P03372)
- Sequence (P03372 whole entry): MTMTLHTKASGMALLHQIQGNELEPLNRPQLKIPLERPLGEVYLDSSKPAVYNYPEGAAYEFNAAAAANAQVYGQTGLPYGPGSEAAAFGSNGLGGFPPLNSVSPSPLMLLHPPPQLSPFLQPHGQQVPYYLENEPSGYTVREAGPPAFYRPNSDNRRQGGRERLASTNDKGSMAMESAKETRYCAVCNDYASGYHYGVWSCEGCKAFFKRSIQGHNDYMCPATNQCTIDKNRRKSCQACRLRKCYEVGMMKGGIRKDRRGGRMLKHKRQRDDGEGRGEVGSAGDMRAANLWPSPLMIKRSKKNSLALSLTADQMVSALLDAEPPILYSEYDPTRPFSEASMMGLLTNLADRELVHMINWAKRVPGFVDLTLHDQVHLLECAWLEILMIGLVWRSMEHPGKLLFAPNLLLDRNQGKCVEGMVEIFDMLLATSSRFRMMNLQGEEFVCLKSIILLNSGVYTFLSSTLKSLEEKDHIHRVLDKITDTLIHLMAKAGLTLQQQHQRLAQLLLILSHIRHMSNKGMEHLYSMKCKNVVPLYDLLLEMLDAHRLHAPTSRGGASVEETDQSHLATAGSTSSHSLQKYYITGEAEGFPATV
- MEASUREMENT PROTOCOL: Degradation of ERα in MCF-7 cells (immunoblotting, 4 h)
- Assay type: cell-based
- ASSAY SETUP: 10nM compound
One number for each entry, in %.

Please report Degradation rate (%) of ERα in MCF-7 cells for every entry that follows.
1. CC1CN(C2CC3(CCN(c4ccc([C@@H]5c6ccc(O)cc6CC[C@@H]5c5ccccc5)cc4)CC3)C2)CCC1N1CCC2(CC1)COc1c2ccc2c1CN(C1CCC(=O)NC1=O)C2=O (some centres unmarked) [K20]
2. O=C1CCC(N2Cc3cc4c(cc3C2=O)CCC2(CN(C(=O)CN3CCC5(CC3)CCN(c3ccc([C@@H]6c7ccc(O)cc7CC[C@@H]6c6ccccc6)cc3)CC5)C2)O4)C(=O)N1 (some centres unmarked) [A69]
3. O=C1CCC(N2Cc3c(ccc4c3OCC43CCN(C(=O)CN4CCC5(CCN(c6ccc([C@@H]7c8ccc(O)cc8CC[C@@H]7c7ccccc7)cc6)CC5)C4)CC3)C2=O)C(=O)N1 (some centres unmarked) [A63]
4. O=C1CCC(N2Cc3c(ccc4c3OC3(CC4)CCN(C(=O)CN4CCC5(CC4)CCN(c4ccc([C@@H]6c7ccc(O)cc7CC[C@@H]6c6ccccc6)cc4)CC5)CC3)C2=O)C(=O)N1 (some centres unmarked) [A65]
5. O=C1CCC(N2Cc3c(ccc4c3OCC43CCN(C(=O)c4ccc(CN5CCN(c6ccc([C@@H]7c8ccc(O)cc8CC[C@@H]7c7ccccc7)cc6)CC5)cn4)CC3)C2=O)C(=O)N1 (some centres unmarked) [B41]
6. O=C1CCC(N2Cc3cc4c(cc3C2=O)CCC2(CN(C(=O)C3CCN(c5ccc([C@@H]6c7ccc(O)cc7CC[C@@H]6c6ccccc6)cc5)CC3)C2)O4)C(=O)N1 (some centres unmarked) [A50]
7. O=C1CCC(N2Cc3c(ccc4c3OCC43CCN(C4CCN(C(=O)C5CCN(c6ccc([C@@H]7c8ccc(O)cc8CC[C@@H]7c7ccccc7)cc6)CC5)CC4)CC3)C2=O)C(=O)N1 (some centres unmarked) [A78]
8. O=C1CCC(N2Cc3c(ccc4c3OCC43CCN(C(=O)C4CCC(N5CCN(c6ccc([C@@H]7c8ccc(O)cc8CC[C@@H]7c7ccccc7)cc6)CC5)CC4)CC3)C2=O)C(=O)N1 (some centres unmarked) [H17]

Data returned:
1: 70; 2: 35; 3: 68; 4: 23; 5: 53; 6: 27; 7: 78; 8: 54

Please report Degradation rate (%) of ERα in MCF-7 cells for every entry that follows.
1. O=C1CCC(N2C(=O)c3cc4c(cc3C2=O)C2(CCN(C3CCN(c5ccc(C6c7ccc(O)cc7CCC6c6ccccc6)cc5)CC3)CC2)CO4)C(=O)N1 (centres unmarked) [A16]
2. C[C@@H]1Cc2cc(O)ccc2C(c2c(F)cc(N3CCC4(CCN(CC(=O)N5CCC6(CC5)COc5c6ccc6c5CN(C5CCC(=O)NC5=O)C6=O)CC4)CC3)cc2F)N1CC(F)F (some centres unmarked) [F4]
3. O=C1CCC(N2C(=O)c3cc4c(cc3C2=O)C2(CCN(CC3CCN(c5ccc(C6c7ccc(O)cc7CCC6c6ccccc6)cc5)C3)CC2)CO4)C(=O)N1 (centres unmarked) [B1]

Data returned:
1. -5
2. 63
3. -35

* * *

Exercise: for every item that follows, state its recorded Degradation rate (%) of ERα in T-47D cells.
- TARGET OR TEST SYSTEM: UniProt:P03372
- MEASUREMENT PROTOCOL: Degradation of ERα in T-47D cells (immunoblotting, 4 h)
- Type: cell-based
- Parameters: host or cells: T-47D
- ASSAY SETUP: 1nM compound
One number for each entry, in %.

A selection of reference data follows.
| COMPOUND | OUTPUT UNIT | QUANTITATIVE READOUT |
| --- | --- | --- |
| C[C@@H]1CN(C(=O)C2CCN(c3cc(F)c(C4c5ccc6[nH]ncc6c5C[C@@H](C)N4CC(F)F)c(F)c3)CC2)CCC1N1CCC2(CC1)COc1c2ccc2c1CN(C1CCC(=O)NC1=O)C2=O (some centres unmarked) [B40] | % | 64 |
| C[C@@H]1Cc2cc(O)ccc2[C@@H](c2c(F)cc(N3CCC(C(=O)N4CCC(N5CCC6(CC5)COc5c6ccc6c5CN(C5CCC(=O)NC5=O)C6=O)CC4)CC3)cc2F)N1CC(F)F (some centres unmarked) [I2] | % | 56 |
| O=C1CCC(N2Cc3c(ccc4c3OCC43CCN(C4CCN(C(=O)C5CCN(c6ccc(C7c8ccc(O)cc8CCC7c7ccccc7)cc6)CC5)C(C(=O)N5CCCCC5)C4)CC3)C2=O)C(=O)N1 (centres unmarked) [K31] | % | 73 |
| O=C1CCC(N2Cc3c(ccc4c3OC3(CC4)CCN(C4CCC5(CC4)CN(c4ccc([C@@H]6c7ccc(O)cc7CC[C@@H]6c6ccccc6)cc4)C5)CC3)C2=O)C(=O)N1 (some centres unmarked) [L22] | % | -7 |

Data request: Give the reported Degradation rate (%) of ERα in T-47D cells for this compound. O=C1CCC(N2Cc3cc4c(cc3C2=O)OC2(CC4)CN(C(=O)C3CC4(CCN(c5ccc([C@@H]6c7ccc(O)cc7CC[C@@H]6c6ccccc6)cc5)CC4)C3)C2)C(=O)N1 (some centres unmarked) [A49]
Data returned: 17

* * *

Exercise: for every item that follows, state its recorded Degradation rate (%) of ERα in T-47D cells.
- TARGET OR TEST SYSTEM: ERα (Homo sapiens)
- MEASUREMENT PROTOCOL: Degradation of ERα in T-47D cells (immunoblotting, 4 h)
- Type: cell-based
- Parameters: host or cells: T-47D
- ASSAY SETUP: 10nM compound
Answers are plain numbers, in %.

A selection of reference data follows.
| COMPOUND | QUANTITATIVE READOUT |
| --- | --- |
| O=C1CCC(N2Cc3c(ccc4c3OCC43CCN(C4CN(C(=O)C5CCN(c6ccc([C@@H]7c8ccc(O)cc8CC[C@@H]7c7ccccc7)cc6)CC5)C4)CC3)C2=O)C(=O)N1 (some centres unmarked) | 79 |
| C[C@@H]1Cc2cc(O)ccc2C(c2c(F)cc(N3CCC4(CCN(CC(=O)N5CCC6(CC5)COc5c6ccc6c5CN(C5CCC(=O)NC5=O)C6=O)C4)CC3)cc2F)N1CC(F)F (some centres unmarked) | 68 |
| O=C1CCC(N2Cc3c(ccc4c3OCC43CCN(C4CCN(C(=O)C5CCN(c6ccc(C7c8ccc(O)cc8CCC7c7ccccc7)cc6)CC5)CC4F)CC3)C2=O)C(=O)N1 (centres unmarked) | 81 |
| O=C1CCC(N2Cc3c(ccc4c3OCC43CCN(C[C@H]4CC[C@H](C(=O)N5CCN(c6ccc([C@@H]7c8ccc(O)cc8CC[C@@H]7c7ccccc7)cc6)CC5)CC4)CC3)C2=O)C(=O)N1 (some centres unmarked) | 78 |
| O=C1CCC(N2Cc3cc4c(cc3C2=O)CCC2(CCN(C3C[C@@H]5CN(c6ccc(C7c8ccc(O)cc8CCC7c7ccccc7)cc6)C[C@@H]5C3)CC2)O4)C(=O)N1 (some centres unmarked) | -2 |
| O=C1CCC(N2Cc3ccc4c(c3C2=O)OCC42CCN(C3CC4(CCN(c5ccc([C@@H]6c7ccc(O)cc7CC[C@@H]6c6ccccc6)cc5)CC4)C3)CC2)C(=O)N1 (some centres unmarked) | 30 |
| CN(CC(=O)N1CCC2(CC1)COc1c2ccc2c1CN(C1CCC(=O)NC1=O)C2=O)C1CCC2(CC1)CCN(c1ccc([C@@H]3c4ccc(O)cc4CC[C@@H]3c3ccccc3)cc1)CC2 (some centres unmarked) | 79 |
| O=C1CCC(N2C(=O)c3cc4c(cc3C2=O)C2(CCN(C3CCC5(CC3)CCN(c3ccc(C6c7ccc(O)cc7CCC6c6ccccc6)cc3)CC5)CC2)CO4)C(=O)N1 (centres unmarked) | 14 |
| O=C1CCC(N2Cc3c(ccc4c3OCC43CCN(C4CCN(C(=O)C5CCN(c6ccc([C@@H]7c8ccc(O)cc8CC[C@@H]7c7ccccc7)cc6)CC5)[C@H](C(=O)N5CCC5)C4)CC3)C2=O)C(=O)N1 (some centres unmarked) | 78 |
| O=C1CCC(N2Cc3cc4c(cc3C2=O)OC2(CC4)CCN(CC3CCC4(CC3)CCN(c3ccc([C@@H]5c6ccc(O)cc6CC[C@@H]5c5ccccc5)cc3)CC4)CC2)C(=O)N1 (some centres unmarked) | 25 |

Please look at the following compound next.
Data request: Give the reported Degradation rate (%) of ERα in T-47D cells for this compound. O=C1CCC(N2Cc3c(ccc4c3OCC43CCN(C(=O)c4ccc(CN5CCN(c6ccc([C@@H]7c8ccc(O)cc8CC[C@@H]7c7ccccc7)cc6)CC5)nc4)CC3)C2=O)C(=O)N1 (some centres unmarked)
Data returned: 65
